assay: Colchicine pharmacokinetics coadministered with voriconazole; conditions: male, human, in vivo, Cmax, Treatment-2 (day 9): colchicine 0.6 mg + voriconazole 200 mg after twice daily days 4-8, fasted; mean
reported_endpoint: Cmax

Given the compound `COc1cc2c(c(OC)c1OC)-c1ccc(OC)c(=O)cc1[C@@H](NC(C)=O)CC2` , what is its reported Cmax? 2.06 ng/mL

###

experiment: Colchicine pharmacokinetics coadministered with fluconazole; conditions: male, human, in vivo, 0.6 mg, AUC∞, Treatment-1 (day 1): colchicine 0.6 mg alone, fasted; fluconazole study; mean
reported_endpoint: AUC(0-inf) (ng·h/mL)
All answers are understood in ng·h/mL, so give the number only.

Given the compound COc1cc2c(c(OC)c1OC)-c1ccc(OC)c(=O)cc1[C@@H](NC(C)=O)CC2 [Colchicine] , what is its reported AUC(0-inf)? 17.5

###

test: Colchicine pharmacokinetics coadministered with fluconazole; settings: male, human, in vivo, 0.6 mg
reported_endpoint: Tmax

Given the molecule `COc1cc2c(c(OC)c1OC)-c1ccc(OC)c(=O)cc1[C@@H](NC(C)=O)CC2` , what is its reported Tmax? 1.25 h

###

test: Colchicine pharmacokinetics coadministered with fluconazole; settings: male, human, in vivo, 0.6 mg
reported_endpoint: Vd/F
Your reply should be a number followed by the unit it is expressed in.

Given the molecule `COc1cc2c(c(OC)c1OC)-c1ccc(OC)c(=O)cc1[C@@H](NC(C)=O)CC2` , what is its reported Vd/F? 1810 L

###

assay: clinical; conditions: human, plasma, oral, 0.6 mg
reported_endpoint: Vd/F (L)
All answers are understood in L, so give the number only.

Given the molecule `COc1cc2c(c(OC)c1OC)-c1ccc(OC)c(=O)cc1[C@@H](NC(C)=O)CC2` , what is its reported Vd/F? 1410

###

assay: clinical; conditions: male, human, in vivo, 0.6 mg, Cmax, Treatment-1 (day 1): colchicine 0.6 mg alone, fasted; propafenone study; mean
reported_endpoint: Cmax (ng/mL)
All answers are understood in ng/mL, so give the number only.

Given the molecule COc1cc2c(c(OC)c1OC)-c1ccc(OC)c(=O)cc1[C@@H](NC(C)=O)CC2 [Colchicine] , what is its reported Cmax? 2.12

###

assay: Colchicine pharmacokinetics coadministered with fluconazole; conditions: male, human, in vivo, AUC∞ GEOMETRIC LSMEANS, Treatment-2: colchicine 0.6 mg + fluconazole
reported_endpoint: AUC(0-inf) (ng·h/mL)
All answers are understood in ng·h/mL, so give the number only.

Given the compound `COc1cc2c(c(OC)c1OC)-c1ccc(OC)c(=O)cc1[C@@H](NC(C)=O)CC2` , what is its reported AUC(0-inf)? 24.4

###

test: clinical; conditions: human, plasma, oral, Cmax GEOMETRIC LSMEANS, Treatment-2: colchicine 0.6 mg + cimetidine
reported_endpoint: Cmax (ng/mL)
All answers are understood in ng/mL, so give the number only.

Given the compound `COc1cc2c(c(OC)c1OC)-c1ccc(OC)c(=O)cc1[C@@H](NC(C)=O)CC2` , what is its reported Cmax? 1.88

###

assay: Colchicine pharmacokinetics coadministered with fluconazole; conditions: male, human, in vivo, 0.6 mg, AUCT GEOMETRIC LSMEANS, Treatment-1: colchicine 0.6 mg alone; fluconazole study
reported_endpoint: AUC(0-t) (ng·h/mL)
All answers are understood in ng·h/mL, so give the number only.

Given the compound COc1cc2c(c(OC)c1OC)-c1ccc(OC)c(=O)cc1[C@@H](NC(C)=O)CC2 [Colchicine] , what is its reported AUC(0-t)? 14.5
